B1: library; numbered along this chain (parent)
chain: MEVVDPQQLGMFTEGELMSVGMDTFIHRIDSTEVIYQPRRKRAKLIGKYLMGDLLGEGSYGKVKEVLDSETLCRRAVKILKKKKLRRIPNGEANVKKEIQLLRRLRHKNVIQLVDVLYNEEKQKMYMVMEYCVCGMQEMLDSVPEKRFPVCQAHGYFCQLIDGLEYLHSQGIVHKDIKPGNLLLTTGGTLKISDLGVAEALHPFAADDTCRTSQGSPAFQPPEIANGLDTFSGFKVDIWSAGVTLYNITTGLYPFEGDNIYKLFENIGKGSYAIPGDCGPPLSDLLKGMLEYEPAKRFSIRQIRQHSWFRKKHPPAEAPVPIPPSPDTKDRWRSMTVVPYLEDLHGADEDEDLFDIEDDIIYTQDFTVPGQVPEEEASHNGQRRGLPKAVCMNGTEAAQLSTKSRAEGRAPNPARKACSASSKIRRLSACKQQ

Variants of: B1
Assay: STK11 functional score (HeLa growth suppression), rescaled enrichment; synonymous median = 1, nonsense median = 0 (normalised score)
Settings: with HeLa; variant type: missense

# MUTATION_DESCRIPTOR, STK11 functional score
measured = [
    ("P294R", 0.705),
    ("K235G", 1.28),
    ("R426N", 1.58),
    ("G270E", 1.42),
    ("N94Y", 0.568),
    ("L67P", 0.0421),
    ("V390Q", 1.63),
    ("Y118T", 1.61),
    ("G163T", 0.008),
    ("L54V", 0.645),
    ("E57M", 1.26),
    ("I248L", 1.05),
    ("K287S", 0.94),
    ("H313I", 1.45),
    ("L85E", 1.7),
    ("A76C", 1.32),
    ("L72Q", 1.26),
    ("W308G", 0.086),
    ("I192V", 1.33),
    ("L190Y", 0.0792),
    ("Y156D", 0.293),
    ("L183V", 1.2),
    ("G188S", 1.05),
    ("L164G", -0.142),
    ("L353Y", 1.4),
    ("E342Y", 1.38),
    ("T395F", 0.847),
    ("M11L", 1.52),
    ("R301C", 1.17),
]
